These data points were gathered from ChEMBL document CHEMBL5291721.

Listed next: entries and their corresponding AC50.
# system: Amine oxidase [flavin-containing] A (Homo sapiens); also: assay procedure not described here
# Sequence (P21397 whole entry): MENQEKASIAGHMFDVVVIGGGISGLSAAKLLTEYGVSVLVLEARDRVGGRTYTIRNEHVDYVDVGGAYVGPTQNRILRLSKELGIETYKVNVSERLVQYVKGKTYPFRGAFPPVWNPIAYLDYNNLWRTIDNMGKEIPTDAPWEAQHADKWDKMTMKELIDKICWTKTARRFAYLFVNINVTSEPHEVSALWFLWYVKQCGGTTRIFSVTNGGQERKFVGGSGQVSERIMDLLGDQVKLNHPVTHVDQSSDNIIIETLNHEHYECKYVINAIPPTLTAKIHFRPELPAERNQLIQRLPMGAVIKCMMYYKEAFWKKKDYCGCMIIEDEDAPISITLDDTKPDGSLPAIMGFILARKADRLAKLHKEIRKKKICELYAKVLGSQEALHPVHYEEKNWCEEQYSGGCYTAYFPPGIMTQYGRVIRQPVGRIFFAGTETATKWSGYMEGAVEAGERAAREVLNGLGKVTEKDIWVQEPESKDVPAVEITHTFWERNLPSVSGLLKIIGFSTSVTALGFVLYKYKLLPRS
# Type: functional

| compound | endpointResult |
| --- | --- |
| C[C@H]1C[C@@H]2[C@H]([C@@H](O)C[C@@]3(C)[C@H]2CC[C@]3(O)C(=O)CO)[C@@]2(C)C=CC(=O)C=C12 | > 30 µM |

Report AC50 for COC(=O)N[C@H](C(=O)N[C@@H](Cc1ccccc1)[C@@H](O)CN(Cc1ccc(-c2ccccn2)cc1)NC(=O)[C@@H](NC(=O)OC)C(C)(C)C)C(C)(C)C please. > 10 µM

Report AC50 for CCOC(=O)[C@H](CCc1ccccc1)N[C@H]1CCCN2CCC[C@@H](C(=O)O)N2C1=O please. > 30 µM

Report AC50 for CN1CCN(C(=O)OC2c3nccnc3C(=O)N2c2ccc(Cl)cn2)CC1 (stereo not drawn) please. > 30 µM

Report AC50 for [H]/N=C(/N)c1ccc(NCc2nc3cc(C(=O)N(CCC(=O)O)c4ccccn4)ccc3n2C)cc1 please. > 30 µM

Report AC50 for O=C(O)CCn1c2c(c3ccccc31)C[C@H](NS(=O)(=O)c1ccc(F)cc1)CC2 please. > 10 µM

Report AC50 for COc1ccc(C(=O)NCc2ccc(OCCN(C)C)cc2)cc1OC [ITOPRIDE] please. > 30 µM

Report AC50 for Nc1nc2ccc(OC(F)(F)F)cc2s1 please. > 30 µM

====

Listed next: entries and their corresponding AC50.
# system: Voltage-gated inwardly rectifying potassium channel KCNH2 (Homo sapiens, UniProt Q12809); also: assay procedure not described here
# Sequence (Q12809 whole entry): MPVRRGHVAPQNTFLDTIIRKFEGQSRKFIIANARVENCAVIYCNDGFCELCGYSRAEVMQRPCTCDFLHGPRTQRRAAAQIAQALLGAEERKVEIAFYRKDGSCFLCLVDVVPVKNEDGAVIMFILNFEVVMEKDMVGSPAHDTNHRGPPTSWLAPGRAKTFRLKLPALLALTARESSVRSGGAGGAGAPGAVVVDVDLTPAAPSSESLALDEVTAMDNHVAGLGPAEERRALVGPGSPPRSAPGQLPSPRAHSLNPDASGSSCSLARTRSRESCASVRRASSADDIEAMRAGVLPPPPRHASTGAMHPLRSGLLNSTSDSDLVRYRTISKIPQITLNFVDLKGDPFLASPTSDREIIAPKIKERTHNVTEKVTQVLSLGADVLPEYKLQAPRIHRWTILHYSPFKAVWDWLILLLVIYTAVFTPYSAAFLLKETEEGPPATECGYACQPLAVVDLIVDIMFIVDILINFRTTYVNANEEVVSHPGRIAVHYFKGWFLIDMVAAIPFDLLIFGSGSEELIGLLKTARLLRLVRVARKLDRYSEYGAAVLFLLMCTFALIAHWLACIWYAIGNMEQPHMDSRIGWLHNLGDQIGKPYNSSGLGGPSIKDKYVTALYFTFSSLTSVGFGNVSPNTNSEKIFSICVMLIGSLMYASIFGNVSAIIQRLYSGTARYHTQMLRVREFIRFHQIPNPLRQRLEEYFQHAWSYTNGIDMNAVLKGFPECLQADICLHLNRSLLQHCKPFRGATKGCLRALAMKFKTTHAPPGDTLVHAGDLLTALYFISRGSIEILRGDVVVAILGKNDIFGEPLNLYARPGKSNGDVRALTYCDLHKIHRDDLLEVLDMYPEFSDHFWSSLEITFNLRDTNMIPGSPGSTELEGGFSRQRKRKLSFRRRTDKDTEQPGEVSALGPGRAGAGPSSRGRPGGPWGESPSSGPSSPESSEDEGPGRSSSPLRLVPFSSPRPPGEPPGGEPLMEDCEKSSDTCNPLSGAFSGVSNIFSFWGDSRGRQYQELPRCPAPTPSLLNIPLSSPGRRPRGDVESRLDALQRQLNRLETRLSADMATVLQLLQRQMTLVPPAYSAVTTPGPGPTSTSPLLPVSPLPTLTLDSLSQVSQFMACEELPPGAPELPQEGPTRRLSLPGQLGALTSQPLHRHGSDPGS
# Assay type: functional
# conditionNotes: read-out: AC50

# example entries with known answers
| compound | system | AC50 |
| --- | --- | --- |
| CC(Cc1ccccc1)NCCC(c1ccccc1)c1ccccc1 (centres undefined) [PRENYLAMINE] | Voltage-gated inwardly rectifying potassium channel KCNH2 (Homo sapiens, UniProt Q12809) | 0.736 µM |
| COc1ccc2c(c1)OC(C)(C)C(c1ccccc1)C2c1ccc(OCCN2CCCC2)cc1 (centres undefined) [ORMELOXIFENE] | Voltage-gated inwardly rectifying potassium channel KCNH2 (Homo sapiens, UniProt Q12809) | 2.7 µM |
| CCCC(CCC)C(=O)O[C@H]1C[C@H]2CC[C@@H](C1)[N+]2(C)C [ANISOTROPINE] | Voltage-gated inwardly rectifying potassium channel KCNH2 (Homo sapiens, UniProt Q12809) | 2.1 µM |
| CC(N)Cc1ccccc1 (centres undefined) [AMPHETAMINE] | Voltage-gated inwardly rectifying potassium channel KCNH2 (Homo sapiens, UniProt Q12809) | > 30 µM |
| Cc1nc2ccc(CN(C)c3ccc(C(=O)N[C@@H](CCC(=O)O)C(=O)O)s3)cc2c(=O)[nH]1 [RALTITREXED] | Voltage-gated inwardly rectifying potassium channel KCNH2 (Homo sapiens, UniProt Q12809) | > 30 µM |
| CC[C@]1(O)C[C@@H]2CN(CCc3c([nH]c4ccccc34)[C@@](C(=O)OC)(c3cc4c(cc3OC)N(C)[C@H]3[C@@](O)(C(N)=O)[C@H](O)[C@]5(CC)C=CCN6CC[C@]43[C@@H]65)C2)C1 [VINDESINE] | Voltage-gated inwardly rectifying potassium channel KCNH2 (Homo sapiens, UniProt Q12809) | 14.9 µM |

Please state recorded AC50 (tested on Voltage-gated inwardly rectifying potassium channel KCNH2 (Homo sapiens, UniProt Q12809)) of Cc1c(O)c(=O)ccn1C [DEFERIPRONE] > 30 µM

Please state recorded AC50 (tested on Voltage-gated inwardly rectifying potassium channel KCNH2 (Homo sapiens, UniProt Q12809)) of CN1CCN(C(=O)OC2c3nccnc3C(=O)N2c2ccc(Cl)cn2)CC1 (centres undefined) [ZOPICLONE] > 30 µM

Please state recorded AC50 (tested on Voltage-gated inwardly rectifying potassium channel KCNH2 (Homo sapiens, UniProt Q12809)) of CCOC(=O)c1ccc(O)cc1 [ETHYLPARABEN] > 30 µM

Please state recorded AC50 (tested on Voltage-gated inwardly rectifying potassium channel KCNH2 (Homo sapiens, UniProt Q12809)) of CCCCCOC(=O)Nc1nc(=O)n([C@@H]2O[C@H](C)[C@@H](O)[C@H]2O)cc1F [CAPECITABINE] > 30 µM

Please state recorded AC50 (tested on Voltage-gated inwardly rectifying potassium channel KCNH2 (Homo sapiens, UniProt Q12809)) of CCN(CC)CCNC(=O)c1cc(Cl)c(N)cc1OC [METOCLOPRAMIDE] 2.77 µM

Please state recorded AC50 (tested on Voltage-gated inwardly rectifying potassium channel KCNH2 (Homo sapiens, UniProt Q12809)) of C#CCN(C)[C@H](C)Cc1ccccc1 [SELEGILINE] > 30 µM

====

# system: Adenosine receptor A3 (Homo sapiens, UniProt P0DMS8); also: assay procedure not described here
# Sequence (P0DMS8 whole entry): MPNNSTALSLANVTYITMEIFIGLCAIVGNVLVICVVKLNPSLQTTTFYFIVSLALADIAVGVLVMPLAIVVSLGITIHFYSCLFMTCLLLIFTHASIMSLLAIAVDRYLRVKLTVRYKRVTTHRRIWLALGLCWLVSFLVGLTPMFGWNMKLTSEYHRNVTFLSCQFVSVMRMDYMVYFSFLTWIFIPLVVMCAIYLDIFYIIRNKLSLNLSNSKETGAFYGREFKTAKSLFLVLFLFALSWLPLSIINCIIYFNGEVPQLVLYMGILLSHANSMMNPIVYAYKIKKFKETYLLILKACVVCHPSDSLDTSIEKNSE
readoutLabel: AC50

| molecule | AC50 |
| --- | --- |
| C1N2CN3CN1CN(C2)C3 | > 30 µM |
| O=C(COc1ccc(Cl)cc1)N1CCN(Cc2ccc3c(c2)OCO3)CC1 [FIPEXIDE] | > 30 µM |
| CS(=O)(=O)Nc1cc2occ(NC=O)c(=O)c2cc1Oc1ccccc1 | 1.44 µM |
| CCC(Cc1c(I)cc(I)c(N)c1I)C(=O)O (stereo not drawn) | > 30 µM |

Attention now turns to another entry.
Report AC50 for CCOc1ccc(/C=C2\NCCc3cc(OCC)c(OCC)cc32)cc1OCC please. 26.4 µM

====

# system: Bile salt export pump (Homo sapiens, UniProt O95342); also: assay procedure not described here
# Sequence (O95342 whole entry): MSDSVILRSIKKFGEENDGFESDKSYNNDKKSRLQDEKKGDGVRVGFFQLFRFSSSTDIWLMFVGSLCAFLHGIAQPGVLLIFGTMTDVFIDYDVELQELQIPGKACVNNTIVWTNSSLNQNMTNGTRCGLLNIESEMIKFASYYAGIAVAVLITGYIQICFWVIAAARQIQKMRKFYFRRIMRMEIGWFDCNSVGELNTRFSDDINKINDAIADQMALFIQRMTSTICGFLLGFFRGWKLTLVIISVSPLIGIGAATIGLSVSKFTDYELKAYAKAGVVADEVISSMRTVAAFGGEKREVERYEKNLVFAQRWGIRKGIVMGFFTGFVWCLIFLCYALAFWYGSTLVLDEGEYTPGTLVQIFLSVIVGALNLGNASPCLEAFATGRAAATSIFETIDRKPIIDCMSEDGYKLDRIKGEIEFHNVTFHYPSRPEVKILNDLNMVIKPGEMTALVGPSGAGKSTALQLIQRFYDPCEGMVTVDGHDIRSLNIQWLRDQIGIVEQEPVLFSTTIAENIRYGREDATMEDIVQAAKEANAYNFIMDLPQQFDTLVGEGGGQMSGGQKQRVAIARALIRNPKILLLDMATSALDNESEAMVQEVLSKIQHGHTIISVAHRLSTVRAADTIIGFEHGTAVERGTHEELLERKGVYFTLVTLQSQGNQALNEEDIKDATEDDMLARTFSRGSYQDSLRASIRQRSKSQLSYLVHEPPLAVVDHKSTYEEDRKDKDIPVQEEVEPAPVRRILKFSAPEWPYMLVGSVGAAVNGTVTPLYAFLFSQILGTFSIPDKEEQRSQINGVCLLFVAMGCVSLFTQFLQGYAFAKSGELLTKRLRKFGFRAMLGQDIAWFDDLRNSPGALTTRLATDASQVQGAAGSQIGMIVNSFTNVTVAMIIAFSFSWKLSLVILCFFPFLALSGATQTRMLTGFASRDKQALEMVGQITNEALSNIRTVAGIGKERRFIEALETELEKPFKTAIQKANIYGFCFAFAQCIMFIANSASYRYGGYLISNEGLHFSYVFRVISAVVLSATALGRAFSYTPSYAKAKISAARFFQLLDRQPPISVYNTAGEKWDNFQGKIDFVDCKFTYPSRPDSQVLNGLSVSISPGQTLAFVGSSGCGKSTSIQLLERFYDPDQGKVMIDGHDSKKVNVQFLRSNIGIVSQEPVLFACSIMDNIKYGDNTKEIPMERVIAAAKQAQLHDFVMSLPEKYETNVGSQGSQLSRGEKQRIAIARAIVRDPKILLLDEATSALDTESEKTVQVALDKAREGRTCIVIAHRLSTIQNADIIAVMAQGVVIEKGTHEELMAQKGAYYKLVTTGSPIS
# Format: functional
readoutLabel: AC50

# example entries with known answers
| compound | endpointResult |
| --- | --- |
| CC(C)Cc1ccc(CC(=O)O)cc1 | > 300 µM |
| CC(=O)c1ccc2c(c1)N(CCCN1CCN(CCO)CC1)c1ccccc1S2 | > 300 µM |
| CN(C)C(=O)Oc1ccc[n+](C)c1 | > 300 µM |
| COC(=O)C1=C(C)NC(C)=C(C(=O)OCC(C)C)C1c1ccccc1[N+](=O)[O-] (stereo not drawn) | 8 µM |
| C[C@H]1C[C@@H]2[C@H]([C@@H](O)C[C@@]3(C)[C@H]2CC[C@]3(O)C(=O)CO)[C@@]2(C)C=CC(=O)C=C12 | 140 µM |

Report AC50 for NC[C@H]1O[C@H](O[C@H]2[C@H](O)[C@@H](O[C@H]3O[C@H](CO)[C@@H](O)[C@H](N)[C@H]3O)[C@H](N)C[C@@H]2N)[C@H](O)[C@@H](O)[C@@H]1O please. > 300 µM

Report AC50 for CCc1ccc(CCOc2ccc(CC3SC(=O)NC3=O)cc2)nc1 (stereo not drawn) please. 0.1 µM

Report AC50 for O=C(CCCCCCC(=O)Nc1ccccc1)NO please. > 300 µM

====

Listed next: entries and their corresponding AC50.
# system: Voltage-gated inwardly rectifying potassium channel KCNH2 (Homo sapiens); also: assay procedure not described here
# Type: functional
# conditionNotes: read-out: AC50

| compound | system | AC50 |
| --- | --- | --- |
| NC[C@H]1CC[C@H](C(=O)O)CC1 [TRANEXAMIC ACID] | Voltage-gated inwardly rectifying potassium channel KCNH2 (Homo sapiens) | > 30 µM |
| O=P(O)(O)C(O)(Cc1cccnc1)P(=O)(O)O [RISEDRONIC ACID] | Voltage-gated inwardly rectifying potassium channel KCNH2 (Homo sapiens) | > 30 µM |
| CC(C(=O)O)c1ccc(N2CC=CC2)c(Cl)c1 (stereo not given) [PIRPROFEN] | Voltage-gated inwardly rectifying potassium channel KCNH2 (Homo sapiens) | > 30 µM |
| CCC1(C2=CCCCCC2)C(=O)NC(=O)NC1=O [HEPTABARBITAL] | Voltage-gated inwardly rectifying potassium channel KCNH2 (Homo sapiens) | > 30 µM |
| [H]/N=C(/N)c1ccc(NCc2nc3cc(C(=O)N(CCC(=O)O)c4ccccn4)ccc3n2C)cc1 [DABIGATRAN] | Voltage-gated inwardly rectifying potassium channel KCNH2 (Homo sapiens) | > 30 µM |
| CN[C@@H](C)[C@H](O)c1ccccc1 [EPHEDRINE] | Voltage-gated inwardly rectifying potassium channel KCNH2 (Homo sapiens) | > 30 µM |

Report AC50 for CCO[C@@H](Cc1ccc(OCCn2c(C)ccc2-c2ccc(SC)cc2)cc1)C(=O)O [SAROGLITAZAR] please. > 30 µM

Report AC50 for CN1C(=O)CC(C)(c2ccccc2)C1=O (stereo not given) [METHSUXIMIDE] please. > 30 µM

Report AC50 for CCCCCCC(C)(C)c1cc(O)c2c(c1)OC(C)(C)C1CCC(=O)CC21 (stereo not given) [NABILONE] please. > 30 µM

Report AC50 for C#CC1(OC(N)=O)CCCCC1 [ETHINAMATE] please. > 30 µM
